The variants listed here are annotated with their aptazyme ON/OFF ratio.
B1: Pistol ribozyme (parent)
chain: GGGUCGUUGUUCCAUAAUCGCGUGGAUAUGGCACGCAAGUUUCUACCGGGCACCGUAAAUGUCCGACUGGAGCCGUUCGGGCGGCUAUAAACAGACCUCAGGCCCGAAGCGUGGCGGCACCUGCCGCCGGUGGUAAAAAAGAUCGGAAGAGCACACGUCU

- Variants of: B1
- method_description: aptazyme ON/OFF ratio, guanine; higher = stronger switching; co-transcriptional cleavage with and without guanine
# answer = number (no unit)

Examples with answers:
Problem: May I ask what aptazyme ON/OFF ratio has been recorded for G9A U10G C12A C13U ?
Result: 1.69

Problem: May I ask what aptazyme ON/OFF ratio has been recorded for U7G G9C U10A U11G C12U C13A ?
Result: 1.18

Problem: May I ask what aptazyme ON/OFF ratio has been recorded for U7A U8A G9U U10C U11C C12U C13G ?
Result: 1.02

Further cases:
Problem: May I ask what aptazyme ON/OFF ratio has been recorded for U7C U8G G9U U10G C12A C13A ?
Result: 1.12

Problem: May I ask what aptazyme ON/OFF ratio has been recorded for U8G G9C U10G U11G C12A C13U ?
Result: 1.3

Problem: May I ask what aptazyme ON/OFF ratio has been recorded for U8G U10C U11C C12A C13G ?
Result: 1.11

Hello, the source for this data is the RNAGym collection of RNA variant scans (doi:10.1021/acssynbio.7b00057), in case you need it.
